B1: CPEB3 Ribozyme (parent)
chain: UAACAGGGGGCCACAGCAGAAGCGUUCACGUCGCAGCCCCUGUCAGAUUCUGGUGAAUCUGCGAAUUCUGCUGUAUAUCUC

Variants of: B1
procedure.details: self-cleavage, relative activity (ratio to wild type); higher = more cleavage; in vitro, sequencing
Okay, here is how we bin by self-cleavage: low-valued: < 0.2; mid-valued: ≥ 0.2 and < 0.8; high-valued: ≥ 0.8

Previously resolved entries follow.
{"input.sequence": "UACCAGGGGGCCACAGCAGAAGCGUUCACGUCGCAGCCCCUGUCAGAUUCUGGUGAAUCUGCGAUUUCUGCUGUAUAUCUC [A3C A65U]", "assigned.label": "high-valued"}
{"input.sequence": "UAAUAGGGGGCCACAGCAGAAGCGUUCACGUCGCAGCCCCUGUCAGAUUCUGGUGAAUCUGCGAAUUCUGCCGUAUAUCUC [C4U U72C]", "assigned.label": "high-valued"}
{"input.sequence": "UAACAGGGGGCCACAGCUGAAGCGUUCACGUCGCUGCCCCUGUCAGAUUCUGGUGAAUCUGCGAAUUCUGCUGUAUAUCUC [A18U A35U]", "assigned.label": "mid-valued"}

Req: Hi, small favor: classify UAACAGGGGGCCACAGCUGAAGCGUUCACGUCGCAGCCCCUGUCAGAUUCUGGUGAAUCUGCGAAUUCUUCUGUAUAUCUC [A18U G70U] by its self-cleavage when you get a moment.
Resp: mid-valued

Req: Then UAACAGGGAGCCACAGCAGAGGCGUUCACGUCGCAGCCCCUGUCAGAUUCUGGUGAAUCUGCGAAUUCUGCUGUAUAUCUC [G9A A21G] ?
Resp: low-valued

Req: Then UAGCAGUGGGCCACAGCAGAAGCGUUCACGUCGCAGCCCCUGUCAGAUUCUGGUGAAUCUGCGAAUUCUGCUGUAUAUCUC [A3G G7U] ?
Resp: mid-valued

Req: Then UAACAGGGGACCACAGCAGAAGCGUUCACGUCGCAGCCCCUGUCAGAUUCUGGUGAAUCUGCGAAUUCUGCUGUAUACCUC [G10A U78C] ?
Resp: mid-valued

Req: Then UAACAGGGGGCCACAGCAGAAACGUUCACGUCGCAGCCCCUGUCAGAUUCUGGUGAAUCAGCGAAUUCUGCUGUAUAUCUC [G22A U60A] ?
Resp: low-valued

Req: Then UAACAGGGGGCCACAGCAGAAGCGUUCUCGUCGCAGCCCCUGUCAGAUUCAGGUGAAUCUGCGAAUUCUGCUGUAUAUCUC [A28U U51A] ?
Resp: mid-valued

Req: Then UAACAGGGGGCCACAGCCGAAGCGUUCACGUCGCAGCCCCUGUCAGAUUUUGGUGAAUCUGCGAAUUCUGCUGUAUAUCUC [A18C C50U] ?
Resp: mid-valued

Req: Then UAACAGGGGGCCACAGCAGAAGCGUUCACGUCGCAGCCCCUGUCAGAUUCUUGAGAAUCUGCGAAUUCUGCUGUAUAUCUC [G52U U54A] ?
Resp: high-valued

Req: Then UAACAGGGGGCCACAGCAGAAGCGUUUACGUCGCAGCCCCUGUCAGAUUCUGGUGAAUCUGCGAAUUCUGCCGUAUAUCUC [C27U U72C] ?
Resp: mid-valued
